biological target: HLA-A*03:01 (human); test: UV peptide exchange; HLA class I ELISA; conditions: remark: other sources report otherwise
# note: boundary value 7% maps to NO; exchange rate with Pos below it maps to YES

Solved cases (2 shown):
RAVRRMNTF (here or on the partner: biotinylated heavy chain) [P17 9-mer … (MSMB-NOCA4 fusion)] | YES
LLERNSFEV (here or on the partner: biotinylated heavy chain) [P73 9-mer … (TP53 G266E)] | YES

With those in mind, consider the next binder.
Q: Threshold test, exchange rate with Pos < 7%: YQFTFDLLI (here or on the partner: biotinylated heavy chain) [P48 9-mer … (AR.p.H875Y)]
Ans: YES

The reported measurements were obtained from patent US20230029453A1.
